IC50 listing for selected compounds.
Test system: SW 982 tumor spheroid viability
assay.name: Anticancer human tumor SW 982 cell line growth inhibition;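 further: spheroids exposed to compound for 7 days before readout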
run.conditions: curve of first compound; second compound 0.0949 µM; spheroids with HUVEC and MSC
Protocol: Multicellular complex tumor spheroid response to DNA repair inhibitors in combination with DNA-damaging drugs This study explores the anticancer activities of DNA-damaging drugs and inhibitors of DNA damage repair, both as single agents and in combinations. […] Twenty-six patient-derived or established malignant cell lines were evaluated representing sarcoma, melanoma, small cell lung cancer (SCLC), non-small cell lung cancer (NSCLC), as well as bladder, ovarian and pancreatic cancers. […]
metric: IC50

COc1cc(C)[nH]c(=O)c1CN1CCc2c(Cl)cc(C(OC)C3COC3)c(Cl)c2C1=O (stereo not drawn) + CC[C@@]1(O)C(=O)OCc2c1cc1n(c2=O)Cc2cc3c(CN(C)C)c(O)ccc3nc2-1	> 10 µM
CC1COCCN1c1cc(-c2ccnn2C)c2ccnc(-c3ccn[nH]3)c2n1 (stereo not drawn) + CC[C@@]1(O)C(=O)OCc2c1cc1n(c2=O)Cc2cc3c(CN(C)C)c(O)ccc3nc2-1	< 0.0316 µM
[2H]c1nc(C)nc([2H])c1-c1cc(NC[C@@H](C)c2cccc3c(C(=O)NC)ccnc23)ncn1 + CC[C@@]1(O)C(=O)OCc2c1cc1n(c2=O)Cc2cc3c(CN(C)C)c(O)ccc3nc2-1	> 10 µM

---

System: SW 982 tumor spheroid viability
assay.name: Anticancer human tumor SW 982 cell line growth inhibition; active means viability on the fitted dose curve at most 10% of control; inactive means the rest;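 further: spheroids exposed to compound for 7 days before readout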
run.conditions: second compound 0.003 µM; first compound 1 µM; spheroids with HUVEC and MSC
Outcome codes: active, inactive

CC1COCCN1c1cc(-c2ccnn2C)c2ccnc(-c3ccn[nH]3)c2n1 (stereo not drawn) + COc1cc2c(cc1O)CCNC21CSC2c3c(OC(C)=O)c(C)c4c(c3C(COC1=O)N1C(O)C3Cc5cc(C)c(OC)c(O)c5C(C21)N3C)OCO4	active
COc1cc(C)[nH]c(=O)c1CN1CCc2c(Cl)cc(C(OC)C3COC3)c(Cl)c2C1=O (stereo not drawn) + CC[C@@]1(O)C(=O)OCc2c1cc1n(c2=O)Cc2cc3c(CN(C)C)c(O)ccc3nc2-1	inactive
CC(C)n1c(=O)n(C)c2cnc3cc(F)c(-c4ccc(OCCCN5CCCCC5)nc4)cc3c21 + CC[C@@]1(O)C(=O)OCc2c1cc1n(c2=O)Cc2cc3c(CN(C)C)c(O)ccc3nc2-1	inactive

---

IC50 listing for selected compounds.
System: SW 982 tumor spheroid viability
assay.name: Anticancer human tumor SW 982 cell line growth inhibition;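 further: spheroids exposed to compound for 7 days before readout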
run.conditions: curve of first compound; second compound 0.0003 µM; spheroids with HUVEC and MSC
metric: IC50

COc1cc(C)[nH]c(=O)c1CN1CCc2c(Cl)cc(C(OC)C3COC3)c(Cl)c2C1=O (stereo not drawn) + COc1cc2c(cc1O)CCNC21CSC2c3c(OC(C)=O)c(C)c4c(c3C(COC1=O)N1C(O)C3Cc5cc(C)c(OC)c(O)c5C(C21)N3C)OCO4	> 10 µM
[2H]c1nc(C)nc([2H])c1-c1cc(NC[C@@H](C)c2cccc3c(C(=O)NC)ccnc23)ncn1 + COc1cc2c(cc1O)CCNC21CSC2c3c(OC(C)=O)c(C)c4c(c3C(COC1=O)N1C(O)C3Cc5cc(C)c(OC)c(O)c5C(C21)N3C)OCO4	> 10 µM
CC1COCCN1c1cc(-c2ccnn2C)c2ccnc(-c3ccn[nH]3)c2n1 (stereo not drawn) + COc1cc2c(cc1O)CCNC21CSC2c3c(OC(C)=O)c(C)c4c(c3C(COC1=O)N1C(O)C3Cc5cc(C)c(OC)c(O)c5C(C21)N3C)OCO4	< 0.0316 µM

---

IC50 listing for selected compounds.
Tested on: SW 982 tumor spheroid viability
assay.name: Anticancer human tumor SW 982 cell line growth inhibition;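 further: spheroids exposed to compound for 7 days before readout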
run.conditions: curve of first compound; second compound 0.00949 µM; spheroids with HUVEC and MSC
metric: IC50

CC1COCCN1c1cc(-c2ccnn2C)c2ccnc(-c3ccn[nH]3)c2n1 (stereo not drawn) + CC[C@@]1(O)C(=O)OCc2c1cc1n(c2=O)Cc2cc3c(CN(C)C)c(O)ccc3nc2-1	< 0.0316 µM
Cn1ncnc1[C@H]1c2n[nH]c(=O)c3cc(F)cc(c23)N[C@@H]1c1ccc(F)cc1 + CC[C@@]1(O)C(=O)OCc2c1cc1n(c2=O)Cc2cc3c(CN(C)C)c(O)ccc3nc2-1	> 3 µM
Cc1cc(C)c(CNC(=O)c2cc(-c3ccc(CN4CCOCC4)cc3)cc3c2cnn3C2CCCC2)c(=O)[nH]1 + CC[C@@]1(O)C(=O)OCc2c1cc1n(c2=O)Cc2cc3c(CN(C)C)c(O)ccc3nc2-1	> 10 µM
